Cited source: patent US20240360148A1

target: SAE1 (Homo sapiens (Human), UniProt Q9UBE0+Q9UBT2); test: SAE High Throughput Biochemical Assay (HTRF), 15 min preincubation; conditions: read-out: 15 min preincubation HTRF IC50 (μM) Ave, SAE1 12.5 nM, ATP 100 μM
Sequence (Q9UBE0 whole entry): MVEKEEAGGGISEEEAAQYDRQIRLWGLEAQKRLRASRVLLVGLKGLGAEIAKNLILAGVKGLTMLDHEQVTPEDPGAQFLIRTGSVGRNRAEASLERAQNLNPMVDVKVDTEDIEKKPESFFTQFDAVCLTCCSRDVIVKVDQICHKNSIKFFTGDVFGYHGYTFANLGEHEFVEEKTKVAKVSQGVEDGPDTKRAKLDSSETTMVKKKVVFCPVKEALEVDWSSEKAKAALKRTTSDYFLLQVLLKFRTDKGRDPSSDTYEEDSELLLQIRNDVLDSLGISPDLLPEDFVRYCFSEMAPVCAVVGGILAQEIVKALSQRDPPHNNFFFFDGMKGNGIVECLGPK
Sequence (Q9UBT2 whole entry): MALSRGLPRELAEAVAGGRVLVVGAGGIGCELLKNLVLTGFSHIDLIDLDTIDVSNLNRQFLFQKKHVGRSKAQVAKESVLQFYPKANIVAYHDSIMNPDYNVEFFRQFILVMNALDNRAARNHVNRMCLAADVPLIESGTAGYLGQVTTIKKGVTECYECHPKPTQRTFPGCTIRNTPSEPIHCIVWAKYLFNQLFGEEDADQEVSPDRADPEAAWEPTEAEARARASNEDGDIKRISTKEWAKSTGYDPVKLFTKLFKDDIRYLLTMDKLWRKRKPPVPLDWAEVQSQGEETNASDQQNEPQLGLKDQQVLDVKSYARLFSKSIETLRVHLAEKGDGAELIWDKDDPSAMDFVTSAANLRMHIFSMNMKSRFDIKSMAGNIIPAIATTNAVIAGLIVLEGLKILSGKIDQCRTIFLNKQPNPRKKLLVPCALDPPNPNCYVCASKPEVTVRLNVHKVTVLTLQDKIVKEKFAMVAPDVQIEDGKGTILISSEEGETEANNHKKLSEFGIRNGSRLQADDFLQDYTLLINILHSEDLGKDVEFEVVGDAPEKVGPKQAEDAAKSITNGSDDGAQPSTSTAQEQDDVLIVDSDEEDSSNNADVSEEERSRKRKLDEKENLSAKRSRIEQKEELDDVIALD
measured.quantity: log10(IC50) (log10 of the value in µM)

# compound, log10(IC50)
measured = [
    ("CCn1cc(-c2cc(F)ccc2C2CN(C(=O)/C=C/CN(C)C)Cc3sc(C#N)cc32)c(C(F)(F)F)n1 (centres unmarked) [Example 211]", 1.31),
    ("CCn1cc(-c2ccccc2[C@@H]2CN(C(=O)C#CC3(N)CCC3)Cc3sc(C#N)cc32)c(C(F)(F)F)n1 [Example 137]", -0.44),
    ("CCn1cc(-c2ccccc2[C@@H]2CN(C(=O)/C=C/[C@H](COC)NC)Cc3sc(C#N)cc32)c(C(F)(F)F)n1 [Example 86]", 0.96),
    ("CCn1cc(-c2ccccc2[C@@H]2CN(C(=O)/C=C/CNC(C)(C)C)Cc3sc(C#N)cc32)c(C(F)(F)F)n1 [Example 101]", 0.35),
    ("C=CC(=O)N1Cc2sc(C#N)cc2C(c2cccc(F)c2-c2cn(CC)nc2C(F)(F)F)C1 (centres unmarked) [Compound 236]", -0.62),
    ("C#CCn1cc(-c2ccccc2[C@@H]2CN(C(=O)/C=C/CN(C)C)Cc3sc(C#N)cc32)c(C(F)(F)F)n1 [Example 155]", 0.55),
    ("CCn1cc(-c2c(F)cccc2[C@@H]2CN(C(=O)/C=C/[C@@H]3CCN3)Cc3sc(C#N)cc32)c(C(F)(F)F)n1 [Example 53]", -0.47),
    ("CN(C)C/C=C/C(=O)N1Cc2sc(C#N)cc2[C@H](c2ccccc2-c2cn(-c3ccnc(N)c3)nc2C(F)(F)F)C1 [Example 160]", 1.39),
    ("CCn1cc(-c2ccccc2[C@@H]2CN(C(=O)/C=C/[C@@H]3CC(C)(C)CN3)Cc3sc(C#N)cc32)c(C(F)(F)F)n1 [Example 83]", -0.12),
    ("CCn1cc(-c2ccccc2[C@@H]2CN(C(=O)/C=C/[C@H]3CCC(C)(C)N3)Cc3sc(C#N)cc32)c(C(F)(F)F)n1 [Example 78]", 0.78),
    ("CCn1cc(-c2ccccc2[C@H]2c3cc(C#N)sc3CN(C(=O)/C=C/CN(C)C)[C@@H]2C)c(C(F)(F)F)n1 [Compound 233]", 0.68),
    ("CCn1cc(-c2c(C3CN(C(=O)/C=C/CN(C)C)Cc4sc(C#N)cc43)ccnc2F)c(C(F)(F)F)n1 (centres unmarked) [Example 202]", 1.40),
]

###

target: SAE1 (Homo sapiens (Human), UniProt Q9UBT2)
Sequence (Q9UBE0 whole entry): as the sequence (Q9UBE0 whole entry) above
Sequence (Q9UBT2 whole entry): as the sequence (Q9UBT2 whole entry) above
pIC50: −log10 of the molar value.
Threshold rule: pIC50 greater than or equal to 6 is yes; below that, no.

# compound, discrete.label
records = [
    ("CCn1cc(-c2c(F)cccc2[C@@H]2CN(C(=O)/C=C/CNC)Cc3sc(C#N)c(C)c32)c(C(F)(F)F)n1 [Example 217]", "yes"),
    ("CCn1cc(-c2cc(C(=O)NC)ccc2C2CN(C(=O)/C=C/CN(C)C)Cc3sc(C#N)cc32)c(C(F)(F)F)n1 (stereo not shown) [Example 208]", "no"),
    ("CCn1cc(-c2ccccc2[C@@H]2CN(C(=O)/C=C/C(N)Cc3ccccc3)Cc3sc(C#N)cc32)c(C(F)(F)F)n1 (stereo partly shown) [Example 44]", "no"),
    ("CCn1cc(-c2ccccc2[C@@H]2CN(C(=O)/C=C/[C@@H](C)N)Cc3sc(C#N)cc32)c(C(F)(F)F)n1 [Example 47]", "no"),
    ("CCn1cc(-c2ccccc2[C@@H]2CN(C(=O)/C=C/CNC3(C)CC3)Cc3sc(C#N)cc32)c(C(F)(F)F)n1 [Example 94]", "no"),
    ("CCOC/C=C/C(=O)N1Cc2sc(C#N)cc2[C@H](c2ccccc2-c2cn(CC)nc2C(F)(F)F)C1 [Example 8]", "no"),
    ("CCn1cc(-c2c(F)cccc2[C@@H]2CN(C(=O)/C=C\\CN(C)C)Cc3sc(C#N)c(C)c32)c(C(F)(F)F)n1 [Compound 223]", "yes"),
]

###

assay: Plasma protein binding, equilibrium dialysis, rat plasma; assay type: in vitro ADME; settings: 5 hours at 37° C., read-out: PPB % bound Rat (converted)

# compound, fraction unbound at 5 h, 1 μM
measured = [
    ("CCn1cc(-c2c(F)cccc2[C@@H]2CN(C(=O)/C=C/CNC)Cc3sc(C#N)c(C)c32)c(C(F)(F)F)n1 [Example 217]", 0.051),
    ("C=CC(=O)N1Cc2sc(C#N)c(C)c2[C@H](c2cccc(F)c2-c2cn(CC)nc2C(F)(F)F)C1 [Compound 222]", 0.004),
    ("CCn1cc(-c2c(F)cccc2[C@@H]2CN(C(=O)/C=C/CN(C)C)Cc3sc(C#N)c(C)c32)c(C(F)(F)F)n1 [Example 46]", 0.021),
    ("CCn1cc(-c2c(F)cccc2[C@@H]2CN(C(=O)/C=C/CNC)Cc3sc(C#N)cc32)c(C(F)(F)F)n1 [Example 50]", 0.062),
]

###

test system: Caco-2 cells; test: Caco-2 permeability/efflux; assay type: in vitro ADME; conditions: basolateral-to-apical, 10 uM, 37° C., 90 min, pH 7.4
measured.quantity: Caco-2 apparent permeability (Papp)

# compound.smiles, recorded.measurement
measured = [
    ("CCn1cc(-c2c(F)cccc2[C@@H]2CN(C(=O)/C=C/[C@H](C)NC)Cc3sc(C#N)cc32)c(C(F)(F)F)n1", "11 10^-6 cm/s"),
    ("CCn1cc(-c2ccccc2[C@@H]2CN(C(=O)/C=C/CNC)Cc3sc(C#N)cc32)c(C(F)(F)F)n1", "58 10^-6 cm/s"),
    ("CCn1cc(-c2c(F)cccc2[C@@H]2CN(C(=O)/C=C/CNC)Cc3sc(C#N)cc32)c(C(F)(F)F)n1", "21 10^-6 cm/s"),
    ("C=CC(=O)N1Cc2sc(C#N)c(C)c2[C@H](c2cccc(F)c2-c2cn(CC)nc2C(F)(F)F)C1", "4.1 10^-6 cm/s"),
    ("CCn1cc(-c2c(F)cccc2[C@@H]2CN(C(=O)/C=C/CNC)Cc3sc(C#N)c(C)c32)c(C(F)(F)F)n1", "14 10^-6 cm/s"),
    ("CCn1cc(-c2c(F)cccc2[C@@H]2CN(C(=O)/C=C/[C@@H]3CCCN3)Cc3sc(C#N)cc32)c(C(F)(F)F)n1", "21 10^-6 cm/s"),
    ("CCn1cc(-c2c(F)cccc2[C@@H]2CN(C(=O)/C=C/CN(C)C)Cc3sc(C#N)c(C)c32)c(C(F)(F)F)n1", "11.6 10^-6 cm/s"),
    ("CCn1cc(-c2c(F)cccc2[C@@H]2CN(C(=O)/C=C/CN(C)C)Cc3sc(C#N)cc32)c(C(F)(F)F)n1", "20 10^-6 cm/s"),
]

###

test: Plasma protein binding, equilibrium dialysis, mouse plasma; format: in vitro ADME; settings: 5 hours at 37° C., read-out: PPB % bound Mouse (converted)
Listed here: items and their measured fraction unbound at 5 h, 1 μM.

# compound, relational.operator, fraction unbound at 5 h, 1 μM
data = [
    ("CCn1cc(-c2c(F)cccc2[C@@H]2CN(C(=O)/C=C/[C@@H]3CCCN3)Cc3sc(C#N)cc32)c(C(F)(F)F)n1 [Example 118]", "=", 0.014),
    ("CCn1cc(-c2ccccc2[C@@H]2CN(C(=O)/C=C/CN(C)C)Cc3sc(Cl)cc32)c(C(F)(F)F)n1 [Comp. Ex. 2, reference compound]", "<", 0.003),
    ("CCn1cc(-c2ccccc2[C@@H]2CN(C(=O)/C=C/CNC)Cc3sc(C#N)cc32)c(C(F)(F)F)n1 [Example 12]", "=", 0.035),
]

###

tested on: Caco-2 cells; assay: Caco-2 permeability/efflux; format: in vitro ADME; conditions: apical-to-basolateral, 10 uM, 37° C., 90 min, pH 7.4

# compound, system.tested, Caco-2 apparent permeability (Papp)
rows = [
    ("CCn1cc(-c2c(F)cccc2[C@@H]2CN(C(=O)/C=C/CNC)Cc3sc(C#N)c(C)c32)c(C(F)(F)F)n1 [Example 217]", "Caco-2 cells", "6 10^-6 cm/s"),
    ("CCn1cc(-c2c(F)cccc2[C@@H]2CN(C(=O)/C=C/CNC)Cc3sc(C#N)cc32)c(C(F)(F)F)n1 [Example 50]", "Caco-2 cells", "4 10^-6 cm/s"),
    ("C=CC(=O)N1Cc2sc(C#N)c(C)c2[C@H](c2cccc(F)c2-c2cn(CC)nc2C(F)(F)F)C1 [Compound 222]", "Caco-2 cells", "3.4 10^-6 cm/s"),
    ("CCn1cc(-c2c(F)cccc2[C@@H]2CN(C(=O)/C=C/CN(C)C)Cc3sc(C#N)c(C)c32)c(C(F)(F)F)n1 [Example 46]", "Caco-2 cells", "12.7 10^-6 cm/s"),
    ("CCn1cc(-c2c(F)cccc2[C@@H]2CN(C(=O)/C=C/[C@@H]3CCCN3)Cc3sc(C#N)cc32)c(C(F)(F)F)n1 [Example 118]", "Caco-2 cells", "4 10^-6 cm/s"),
    ("CCn1cc(-c2c(F)cccc2[C@@H]2CN(C(=O)/C=C/CN(C)C)Cc3sc(C#N)cc32)c(C(F)(F)F)n1 [Example 215]", "Caco-2 cells", "15 10^-6 cm/s"),
    ("CCn1cc(-c2ccccc2[C@@H]2CN(C(=O)/C=C/CNC)Cc3sc(C#N)cc32)c(C(F)(F)F)n1 [Example 12]", "Caco-2 cells", "5 10^-6 cm/s"),
    ("CCn1cc(-c2c(F)cccc2[C@@H]2CN(C(=O)/C=C/[C@H](C)NC)Cc3sc(C#N)cc32)c(C(F)(F)F)n1 [Example 89]", "Caco-2 cells", "8 10^-6 cm/s"),
]
